Reported Percent Effect values for a set of compounds
target: Aspartate--tRNA(Asp/Asn) ligase (Mycobacterium tuberculosis (strain ATCC 25618 / H37Rv)); assay: Assay for Asp RNA synthetase-1 from Mycobacterium tuberculosis; type: functional; set-up: scale not given: direction of the effect not stated beside the values; conditions: 30 µM; further: in the data most compounds retested in dose-response had high values
Provide the reading as a plain figure in %.

Q: # return recorded Percent Effect for entry c1ccc(-c2cnc(CNCC3CCCN3c3cccnn3)o2)cc1 (stereo not drawn)
Result: 1.15

Q: # return recorded Percent Effect for entry CN(CCn1cccn1)S(=O)(=O)N1CCCC1c1ccco1 (stereo not drawn)
Result: 4.31

###

biological target: Shiga toxin 2 (Escherichia coli O157:H7) (UniProt P09385+P09386); test: E. coli 0.157:H7 Shiga Toxin SOP - stx2 screening assay; format: functional; design: scale not given: direction of the effect not stated beside the values; settings: 30 µM
RESULT_TYPE: Percent Effect (%)
Provide the reading as a plain figure in %.

In the examples that follow, each entry is paired with its recorded Percent Effect.
CCn1cc(CN(C)S(=O)(=O)c2cc(Cl)ccc2Cl)cn1	-51.4
Cc1cc(Nc2nc(C)cs2)nc(C2CCCCN2CCO)n1 (centres undefined)	-34.2
Cc1cc(NC(=O)NCC(O)c2ccc(Cl)cc2Cl)n(C)n1 (centres undefined)	24.8
CCn1ccnc1CN1CCC(CCC(=O)Nc2ccccc2Cl)CC1	-30.9
Cc1cc(NC(=O)CN2CCn3c(nnc3C3CC3)C2)n(C)n1	19.6

Q: # return recorded Percent Effect for entry c1ccc(CCNC2CCc3ncnn3C2)nc1 (centres undefined)
Result: -16.7

Q: # return recorded Percent Effect for entry CC(C)c1nc2n(n1)CC(NCc1nnc(-c3ccco3)o1)CC2 (centres undefined)
Result: 11.7

Q: # return recorded Percent Effect for entry O=C(NCC1CC1)C1CN(C(=O)c2ccncc2)CC12CCOCC2 (centres undefined)
Result: -21.5

Q: # return recorded Percent Effect for entry CCN(CC)S(=O)(=O)N1CCCC(c2ccc(C(=O)O)cc2)C1 (centres undefined)
Result: -2.52

Q: # return recorded Percent Effect for entry CN(C)c1cc(C(=O)N2CCCC(n3cccn3)C2)ccn1 (centres undefined)
Result: -7.48

###

Molecular target: Aspartate--tRNA(Asp/Asn) ligase (Mycobacterium tuberculosis (strain ATCC 25618 / H37Rv)) (UniProt P9WFW3); further: in the data most compounds retested in dose-response had high values
Sequence (whole entry): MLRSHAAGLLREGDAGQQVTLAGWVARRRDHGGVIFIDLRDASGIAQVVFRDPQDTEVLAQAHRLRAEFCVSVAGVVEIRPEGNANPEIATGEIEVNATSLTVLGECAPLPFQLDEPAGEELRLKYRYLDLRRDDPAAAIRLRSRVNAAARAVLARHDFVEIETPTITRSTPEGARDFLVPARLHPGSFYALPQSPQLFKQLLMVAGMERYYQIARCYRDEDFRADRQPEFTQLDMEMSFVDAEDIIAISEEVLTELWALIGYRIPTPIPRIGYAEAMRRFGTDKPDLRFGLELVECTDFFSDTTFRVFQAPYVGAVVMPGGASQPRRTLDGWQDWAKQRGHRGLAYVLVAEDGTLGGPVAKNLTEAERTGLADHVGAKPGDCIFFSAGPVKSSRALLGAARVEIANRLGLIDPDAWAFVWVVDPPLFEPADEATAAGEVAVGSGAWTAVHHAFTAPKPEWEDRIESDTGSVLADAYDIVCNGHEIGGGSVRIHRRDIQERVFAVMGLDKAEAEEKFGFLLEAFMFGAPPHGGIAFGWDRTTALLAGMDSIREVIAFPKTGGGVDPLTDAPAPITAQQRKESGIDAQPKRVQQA
Experiment: Assay for Asp RNA synthetase-1 from Mycobacterium tuberculosis
Type: functional
Design: scale not given: direction of the effect not stated beside the values
Details: 30 µM
RESULT_TYPE: Percent Effect (%)
Provide the reading as a plain figure in %.

In the examples that follow, each entry is paired with its recorded Percent Effect.
CCn1c(C2CCCN(Cc3nccn3CCOC)C2)nn(C)c1=O (configuration not stated)	4.25
CCC(C)(C)NC(=O)Cn1nc(C)nc1-c1cccc(C)c1	1.4
Cc1nn(C)c(Cl)c1C1CCCN1C(=O)c1nccnc1N (configuration not stated)	-0.929
CC(Cn1cccn1)NC(=O)NCc1cccnc1OC1CCCC1 (configuration not stated)	-4.78
O=S(=O)(c1ccccc1)N1CCN(CCn2ccnc2)CC1	-3.1
O=C(NCCNc1ncccn1)Nc1cc(C(F)(F)F)c[nH]c1=O	-1.25
CCC(=O)N1CCC(Cc2nccnc2Nc2ccccn2)CC1	-0.309
CC(C)N1CCC(N2CCN(C3CCC3)CC2CCO)CC1 (configuration not stated)	-3.4
O=C1C(NCc2nnc3n2CCCC3)CCN1c1ccccc1 (configuration not stated)	-1.97
CCNC(=O)NC(=O)CSC(C)c1ccccc1F (configuration not stated)	2.19

Q: # return recorded Percent Effect for entry Cc1cc(CC(=O)N2CCCC2c2nc(C(C)C)no2)on1 (configuration not stated)
Result: -3.79

Q: # return recorded Percent Effect for entry `Cc1ccc(=O)n(CC2(O)CCN(Cc3cnc(C)nc3)CC2)n1`
Result: 1.71
